# testedSystem: Human recombinant FAP (Homo sapiens, UniProt Q12884)
# protocolDescription: FRET-based FAP protease activity assay
# Type: biochemical
# Set-up: purchased R&D systems 3715-SE
# experimentalConditions: pIC50 Category (Activity), FRET substrate, 37° C.
Numbered stars: 1 amine (or outer) side, 2 acyl side, 3 side chain; on linkers, the order of the positions; unused ones are H or OH. Bridge positions count the residues as written; N and C are the ends. Peptide text beside a SMILES is read from it. * marks the point of attachment. X7 = O=C(CN1CCN2CCN3CCN(CC1)CC(=O)[O][In]([O]C(=O)C2)[O]C(=O)C3)NCCSCc1cc(C[*:1])cc(C[*:2])c1; Hexanoyl = CCCCCC(=O)*
Documented IC50 across a set of compounds
measuredMetric: IC50

| compound | testedSystem | resultValue |
| --- | --- | --- |
| CCCCCC(=O)N[C@H]1CSCc2cc(CSCCNC(=O)CN3CCN4CCN5CCN(CC3)CC(=O)[O][In]([O]C(=O)C4)[O]C(=O)C5)cc(c2)CSC[C@@H](C(=O)NCC(=O)O)NC(=O)[C@H](Cc2ccccc2)NC(=O)[C@H](CCC(N)=O)NC(=O)[C@H]([C@@H](C)O)NC(=O)[C@@H]2CCCN2C(=O)[C@@H]2CCCN2C1=O [3BP-3714] (Hexanoyl-CPPTQFCG-OH; linker 1-7 via X7) | Human recombinant FAP (Homo sapiens, UniProt Q12884) | < 0.01 µM |
| CCCCCC(=O)N[C@H]1CSCc2cc(CSCCNC(=O)CCC(=O)NCCCOCCOCCOCCCNC(=O)[C@H](CS)NC(=O)[C@H](CC(=O)O)NC(=O)[C@@H](N)CC(=O)O)cc(c2)CSC[C@@H](C(=O)O)NC(=O)[C@H](Cc2ccccc2)NC(=O)[C@H](CCC(N)=O)NC(=O)[C@H]([C@@H](C)O)NC(=O)[C@@H]2CCCN2C(=O)[C@@H]2CCCN2C1=O | Human recombinant FAP (Homo sapiens, UniProt Q12884) | 0.01 to 0.0794 µM |
| CCCCCC(=O)N[C@H]1CSCc2cc(CSCCNC(=O)CCP(=O)(O)CN3CCN(CP(=O)(O)CO)CCN(CP(=O)(O)CO)CC3)cc(c2)CSC[C@@H](C(=O)O)NC(=O)[C@H](Cc2ccccc2)NC(=O)[C@H](CCC(N)=O)NC(=O)[C@H]([C@@H](C)O)NC(=O)[C@@H]2CCCN2C(=O)[C@@H]2CCCN2C1=O | Human recombinant FAP (Homo sapiens, UniProt Q12884) | < 0.01 µM |

* * *

# testedSystem: Human recombinant FAP (Homo sapiens)
# Sequence (Q12884 1-760): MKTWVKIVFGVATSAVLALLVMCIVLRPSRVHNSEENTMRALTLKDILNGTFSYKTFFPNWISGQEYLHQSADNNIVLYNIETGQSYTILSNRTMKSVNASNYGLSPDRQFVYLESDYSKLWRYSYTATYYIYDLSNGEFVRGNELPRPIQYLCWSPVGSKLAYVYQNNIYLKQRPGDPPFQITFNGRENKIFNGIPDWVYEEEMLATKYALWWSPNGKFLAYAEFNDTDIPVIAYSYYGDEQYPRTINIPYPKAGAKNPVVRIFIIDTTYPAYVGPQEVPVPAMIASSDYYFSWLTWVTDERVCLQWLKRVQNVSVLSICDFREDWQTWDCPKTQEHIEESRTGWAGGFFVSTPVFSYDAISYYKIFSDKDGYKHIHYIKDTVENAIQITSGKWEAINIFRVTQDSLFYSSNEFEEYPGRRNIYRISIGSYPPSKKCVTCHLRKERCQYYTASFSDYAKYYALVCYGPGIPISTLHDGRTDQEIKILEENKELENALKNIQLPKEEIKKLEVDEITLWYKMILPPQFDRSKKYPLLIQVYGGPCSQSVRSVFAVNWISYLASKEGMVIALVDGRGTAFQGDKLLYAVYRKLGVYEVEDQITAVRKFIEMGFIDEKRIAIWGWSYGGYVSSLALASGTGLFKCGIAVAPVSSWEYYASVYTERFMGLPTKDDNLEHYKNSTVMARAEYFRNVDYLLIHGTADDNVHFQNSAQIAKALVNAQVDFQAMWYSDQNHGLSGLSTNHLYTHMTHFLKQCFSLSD
# protocolDescription: FRET-based FAP protease activity assay
# Assay type: biochemical
# Set-up: purchased R&D systems 3715-SE
# experimentalConditions: pIC50 Category (Activity), recombinant human FAP, FRET substrate, 37° C.
Numbered stars: 1 amine (or outer) side, 2 acyl side, 3 side chain; on linkers, the order of the positions; unused ones are H or OH. Bridge positions count the residues as written; N and C are the ends. Square brackets hold non-standard residues; d marks the D form. Peptide text beside a SMILES is read from it. * marks the point of attachment. NH(CH2)5NHDOTA = O=C(O)CN1CCN(CC(=O)O)CCN(CC(=O)NCCCCCN*)CCN(CC(=O)O)CC1; NH(CH2)3NHDOTA = O=C(O)CN1CCN(CC(=O)O)CCN(CC(=O)NCCCN*)CCN(CC(=O)O)CC1; Pyridine(2,6-diCH2) = c1cc(C[*:1])nc(C[*:2])c1; mXylylene = c1cc(C[*:1])cc(C[*:2])c1; 3Pal = N[C@@H](Cc1cccnc1)C(=O)O; Hexanoyl = CCCCCC(=O)*; CO = O=C([*:1])[*:2]; NHPentyl = CCCCCN*
Each entry below carries its reported IC50.
measuredMetric: IC50

| compound | testedSystem | resultValue |
| --- | --- | --- |
| CCCCCC(=O)N[C@H]1CSCc2cccc(c2)CSC[C@@H](C(N)=O)NC(=O)[C@H](Cc2ccccc2)NC(=O)[C@H](CCC(=O)O)NC(=O)[C@H](C)NC(=O)[C@@H]2CCCN2C(=O)[C@@H]2CCCN2C1=O [3BP-3354] (Hexanoyl-CPPAEFC-NH2; linker 1-7 via mXylylene) | Human recombinant FAP (Homo sapiens) | > 1000 nM |
| CCCCCC(=O)N[C@H]1CSCc2cccc(n2)CSC[C@@H](C(=O)N[C@@H](CC(=O)O)C(N)=O)NC(=O)[C@H](Cc2ccccc2)NC(=O)[C@H](CCC(N)=O)NC(=O)[C@H]([C@@H](C)O)NC(=O)[C@@H]2CCCN2C(=O)[C@@H]2CCCN2C1=O [3BP-3518] (Hexanoyl-CPPTQFCD-NH2; linker 1-7 via Pyridine(2,6-diCH2)) | Human recombinant FAP (Homo sapiens) | < 10 nM |
| CSCC[C@H](NC(C)=O)C(=O)N[C@H]1CSCc2cccc(c2)CSC[C@@H](C(=O)N[C@@H](CC(=O)O)C(=O)N[C@@H](Cc2c[nH]cn2)C(=O)N[C@@H](Cc2cccnc2)C(=O)N[C@@H](CCCNC(=N)N)C(=O)N[C@@H](CC(=O)O)C(N)=O)NC(=O)[C@H](Cc2ccccc2)NC(=O)[C@H](CCC(=O)O)NC(=O)[C@H]([C@@H](C)O)NC(=O)[C@@H]2CCCN2C(=O)[C@@H]2CCCN2C1=O [3BP-3192] (Ac-MCPPTEFCDH[3Pal]RD-NH2; linker 2-8 via mXylylene) | Human recombinant FAP (Homo sapiens) | < 10 nM |
| CCCCCC(=O)N[C@H]1CSCc2cccc(c2)CSC[C@@H](C(=O)N[C@@H](CC(=O)O)C(=O)NCCCCCNC(=O)CN2CCN(CC(=O)O)CCN(CC(=O)O)CCN(CC(=O)O)CC2)NC(=O)[C@H](Cc2ccccc2)NC(=O)[C@H](CCC(N)=O)NC(=O)[C@H]([C@@H](C)O)NC(=O)[C@@H]2CCCN2C(=O)[C@@H]2CCCN2C1=O [3BP-3403] (Hexanoyl-CPPTQFCD-{NH(CH2)5NHDOTA}; linker 1-7 via mXylylene) | Human recombinant FAP (Homo sapiens) | < 10 nM |
| CSCC[C@H](NC(C)=O)C(=O)N[C@H]1CSCc2cccc(c2)CSC[C@@H](C(=O)N[C@@H](CC(=O)O)C(=O)N[C@H](Cc2c[nH]cn2)C(=O)N[C@@H](Cc2ccccc2)C(=O)N[C@@H](CCCNC(=N)N)C(=O)N[C@@H](CC(=O)O)C(N)=O)NC(=O)[C@H](Cc2ccccc2)NC(=O)[C@H](CCC(=O)O)NC(=O)[C@H]([C@@H](C)O)NC(=O)[C@@H]2CCCN2C(=O)[C@@H]2CCCN2C1=O [3BP-3210] (Ac-MCPPTEFCD[dH]FRD-NH2; linker 2-8 via mXylylene) | Human recombinant FAP (Homo sapiens) | < 10 nM |
| CSCC[C@H](NC(C)=O)C(=O)N[C@H]1CSCc2cccc(c2)CSC[C@@H](C(=O)N[C@H](CC(=O)O)C(=O)N[C@@H](Cc2c[nH]cn2)C(=O)N[C@@H](Cc2ccccc2)C(=O)N[C@@H](CCCNC(=N)N)C(=O)N[C@@H](CC(=O)O)C(N)=O)NC(=O)[C@H](Cc2ccccc2)NC(=O)[C@H](CCC(=O)O)NC(=O)[C@H]([C@@H](C)O)NC(=O)[C@@H]2CCCN2C(=O)[C@@H]2CCCN2C1=O [3BP-3183] (Ac-MCPPTEFC[dD]HFRD-NH2; linker 2-8 via mXylylene) | Human recombinant FAP (Homo sapiens) | 10 to 79.4 nM |
| CSCC[C@H](NC(C)=O)C(=O)N[C@H]1CSCc2cccc(c2)CSC[C@@H](C(=O)N[C@@H](CC(=O)O)C(=O)N[C@@H](C)C(=O)N[C@@H](Cc2ccccc2)C(=O)N[C@@H](CCCNC(=N)N)C(=O)N[C@@H](CC(=O)O)C(N)=O)NC(=O)[C@H](Cc2ccccc2)NC(=O)[C@H](CCC(=O)O)NC(=O)[C@H]([C@@H](C)O)NC(=O)[C@@H]2CCCN2C(=O)[C@@H]2CCCN2C1=O [3BP-3195] (Ac-MCPPTEFCDAFRD-NH2; linker 2-8 via mXylylene) | Human recombinant FAP (Homo sapiens) | 10 to 79.4 nM |
| CCCCCC(=O)N[C@H]1CSCc2cccc(c2)CSC[C@@H](C(=O)N[C@@H](CC(=O)O)C(N)=O)NC(=O)[C@H](Cc2ccccc2)NC(=O)[C@H](CCC(=O)NCCCNC(=O)CN2CCN(CC(=O)O)CCN(CC(=O)O)CCN(CC(=O)O)CC2)NC(=O)[C@H]([C@@H](C)O)NC(=O)[C@@H]2CCCN2C(=O)[C@@H]2CCCN2C1=O [3BP-3472] (Hexanoyl-CPPTE(NH(CH2)3NHDOTA)FCD-NH2; linker 1-7 via mXylylene) | Human recombinant FAP (Homo sapiens) | > 1000 nM |
| CSCC[C@H](NC(C)=O)C(=O)N[C@H]1CSCc2cccc(c2)CSC[C@@H](C(=O)N[C@@H](CC(=O)O)C(=O)N[C@@H](Cc2c[nH]cn2)C(=O)N[C@@H](Cc2ccccc2)C(=O)N[C@@H](CCCNC(=N)N)C(=O)N[C@@H](C)C(N)=O)NC(=O)[C@H](Cc2ccccc2)NC(=O)[C@H](CCC(=O)O)NC(=O)[C@H]([C@@H](C)O)NC(=O)[C@@H]2CCCN2C(=O)[C@@H]2CCCN2C1=O [3BP-3198] (Ac-MCPPTEFCDHFRA-NH2; linker 2-8 via mXylylene) | Human recombinant FAP (Homo sapiens) | < 10 nM |
| CCCCCNC(=O)N[C@H]1CSCc2cccc(c2)CSC[C@@H](C(=O)N[C@@H](CC(=O)O)C(N)=O)NC(=O)[C@H](Cc2ccccc2)NC(=O)[C@H](CCC(N)=O)NC(=O)[C@H]([C@@H](C)O)NC(=O)[C@@H]2CCCN2C(=O)[C@@H]2CCCN2C1=O [3BP-3425] ({NHPentyl-CO}-CPPTQFCD-NH2; linker 1-7 via mXylylene) | Human recombinant FAP (Homo sapiens) | < 10 nM |
